- System name: IGF1R Ba/F3 (Homo sapiens, UniProt P08069)
- Sequence (P08069 999-1274 limits assumed): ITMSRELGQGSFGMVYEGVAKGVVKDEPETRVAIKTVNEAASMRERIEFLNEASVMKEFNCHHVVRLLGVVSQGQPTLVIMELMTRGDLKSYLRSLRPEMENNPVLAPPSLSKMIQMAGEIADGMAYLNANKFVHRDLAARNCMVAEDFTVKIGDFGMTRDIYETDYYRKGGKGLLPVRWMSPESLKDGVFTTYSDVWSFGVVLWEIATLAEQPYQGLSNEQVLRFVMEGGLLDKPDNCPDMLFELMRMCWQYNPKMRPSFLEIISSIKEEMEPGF
- Protocol details: Ba/F3 Cell Viability Inhibition Assay (Tel-TK transformed Ba/F3 lines)
- Format: cell-based, murine
- Parameters: the printed alternative
- Measurement context: Tel-TK (IGF1R) transformed Ba/F3 cells, 48 hours incubation, cell viability (Britelite luminescence)
Measured pIC50, listed per entry.
Expect pIC50 as a plain number equal to -log10 of the molar concentration.

Solved cases (5 shown):
Molecule: Cc1cc(Nc2nc(Nc3cc(C)c([C@H]4CC[C@@H](N5CCCCC5)CC4)cc3C)ncc2C(F)(F)F)n[nH]1
Quantitative result: 8.40
//
Molecule: Cc1cc(Nc2nc(Nc3cc(C)c(-c4csc(C)n4)cc3C)ncc2Cl)n[nH]1
Quantitative result: 6.97
//
Molecule: Cc1cc(Nc2nc(Nc3ccc(C4CCN(CC(N)=O)CC4)c4ccccc34)ncc2Cl)n[nH]1
Quantitative result: 6.97
//
Molecule: Cc1cc(Nc2nc(Nc3cc(C)c(C4CCC(=O)CC4)cc3C)ncc2C(F)(F)F)n[nH]1
Quantitative result: 7.31
//
Molecule: Cc1cc(Nc2nc(Nc3cc(C)c([C@H]4CC[C@H](O)CC4)cc3C)ncc2Cl)n[nH]1
Quantitative result: 7.85

Entry Cc1cc(Nc2nc(Nc3cc(C)c([C@H]4CC[C@@H](N5CCOCC5)CC4)cc3F)ncc2C(F)(F)F)n[nH]1 ; pIC50 = 7.30

Entry CCN1CCc2ccc(Nc3ncc(Cl)c(Nc4cc(C)[nH]n4)n3)cc2CC1 ; pIC50 = 7.06

Entry C/C(=N\OCCO)c1cc(C)c(Nc2ncc(Cl)c(Nc3cc(C)[nH]n3)n2)cc1C ; pIC50 = 6.85

Entry Cc1cc(Nc2nc(Nc3cc4c(cc3F)CN(C3CCNCC3)C4=O)ncc2Cl)n[nH]1 ; pIC50 = 5.19

Entry Cc1cc(Nc2nc(Nc3cc(C)c([C@H]4CC[C@H](N5CCNCC5)CC4)cc3F)ncc2Cl)n[nH]1 ; pIC50 = 7.41

Entry Cc1cc(Nc2nc(Nc3cc(C)c(-c4cnn(C)c4)cc3F)ncc2Cl)n[nH]1 ; pIC50 = 7.17

----------
- System name: IGF1R Ba/F3 (Homo sapiens, UniProt P08069)
- Protocol details: Ba/F3 Cell Viability Inhibition Assay (Tel-TK transformed Ba/F3 lines)
- Type: cell-based, murine
- Parameters: the printed alternative
- Measurement context: Tel-TK (IGF1R) transformed Ba/F3 cells, 48 hours incubation, cell viability (Britelite luminescence)
Endpoint label: IC50 (nM)
Kindly provide the numeric value in nM only, without the unit symbol.

Solved cases (3 shown):
Molecule: Cc1cc(Nc2nc(Nc3cc(C)c([C@H]4CC[C@@H](N5CC[C@H](O)C5)CC4)cc3F)ncc2Cl)n[nH]1 [Compound 54]
IC50 / nM: 16

Molecule: CCN(CC)[C@H]1CC[C@@H](c2cc(F)c(Nc3ncc(Cl)c(Nc4cc(C)[nH]n4)n3)cc2C)CC1 [Compound 56]
IC50 / nM: 25

Molecule: Cc1cc(Nc2nc(Nc3cc(C)c(-c4ncc[nH]4)cc3C)ncc2Cl)n[nH]1 [Compound 17]
IC50 / nM: 68

Next molecule, please.
Entry Cc1cc(Nc2nc(Nc3cc(C)c([C@H]4CC[C@@H](N5CCCCC5)CC4)cc3F)ncc2C(F)(F)F)n[nH]1 [Compound 62] ; IC50 = 18

The origin of these recorded values is patent US8445505B2.
